Test system: Staphylococcus aureus ATCC 25923
Type: cell-based
Non-standard residues stand in square brackets, D forms with d. Residues, ends and D or L forms follow the SMILES beside them. dPhe(4-Br) = N[C@H](Cc1ccc(Br)cc1)C(=O)O; dPhe(4-F) = N[C@H](Cc1ccc(F)cc1)C(=O)O; d2Nal = N[C@H](Cc1ccc2ccccc2c1)C(=O)O

| COMPOUND | MIC Staphylococcus aureus ATCC 25923 |
| --- | --- |
| CC(=O)N[C@H](CCCNC(=N)N)C(=O)N[C@H](CCCCN)C(=O)N[C@H](CC(C)C)C(=O)N[C@H](CC(C)C)C(=O)N[C@H](Cc1ccc2ccccc2c1)C(=O)N[C@H](CCCNC(=N)N)C(=O)N[C@H](CC(C)C)C(=O)N[C@H](CCCCN)C(=O)N[C@H](Cc1ccccc1)C(=O)N[C@H](CCCNC(=N)N)C(=O)N[C@H](CCCCN)C(N)=O [LV-4] (Ac-[dR][dK][dL][dL][d2Nal][dR][dL][dK][dF][dR][dK]-NH2) | 1 µg/mL |
| CC(=O)N[C@H](CCCNC(=N)N)C(=O)N[C@H](CCCCN)C(=O)N[C@H](CC(C)C)C(=O)N[C@H](CC(C)C)C(=O)N[C@H](Cc1ccc(F)cc1)C(=O)N[C@H](CCCCN)C(=O)N[C@H](CC(C)C)C(=O)N[C@H](CCCCN)C(=O)N[C@H](Cc1ccc(F)cc1)C(=O)N[C@H](CCCCN)C(=O)N[C@H](CCCNC(=N)N)C(N)=O [LV-5] (Ac-[dR][dK][dL][dL][dPhe(4-F)][dK][dL][dK][dPhe(4-F)][dK][dR]-NH2) | 1 µg/mL |
| CC(=O)N[C@H](CCCCN)C(=O)N[C@H](CCCCN)C(=O)N[C@H](CC(C)C)C(=O)N[C@H](CC(C)C)C(=O)N[C@H](Cc1ccc(Br)cc1)C(=O)N[C@H](CCCNC(=N)N)C(=O)N[C@H](CC(C)C)C(=O)N[C@H](CCCCN)C(=O)N[C@H](Cc1ccc(Br)cc1)C(=O)N[C@H](CCCNC(=N)N)C(=O)N[C@H](CCCCN)C(N)=O [LV-10] (Ac-[dK][dK][dL][dL][dPhe(4-Br)][dR][dL][dK][dPhe(4-Br)][dR][dK]-NH2) | 2 µg/mL |
